Assay: Cytotoxicity against human BSMC cells assessed as cell viability at 20 uM after 72 hrs by WST-1 assay
Assay type: cell-based
outcomeMeasure: Activity

[
  {
    "molecule": "COc1cc(-c2cc(-c3ccc4[nH]ccc4c3)on2)cc(OC)c1OC",
    "observedMeasurement": "Non-toxic"
  },
  {
    "molecule": "Fc1ccc(-c2cc(-c3ccc4[nH]ccc4c3)on2)cc1",
    "observedMeasurement": "Toxic"
  },
  {
    "molecule": "COc1ccc(-c2cc(-c3ccc4[nH]ccc4c3)on2)cc1",
    "observedMeasurement": "Non-toxic"
  },
  {
    "molecule": "O=[N+]([O-])c1ccc(-c2cc(-c3ccc4[nH]ccc4c3)on2)cc1",
    "observedMeasurement": "Toxic"
  }
]

----------
Test system: COLO 320
Experiment: Induction of apoptosis in human COLO320 cells assessed as induction of caspase-3/7 at 20 uM after 4 hrs by spectrofluorimetry relative to control
Assay type: functional
Conditions: in the assay text read “at 10 uM” for “at 20 uM”
# fold change (FC) values compiled below

[
  {
    "molecule": "O=[N+]([O-])c1ccc(-c2cc(-c3ccc4[nH]ccc4c3)on2)cc1",
    "targetUnderTest": "COLO 320",
    "fold change (FC)": 3.76
  },
  {
    "molecule": "Fc1ccc(-c2cc(-c3ccc4[nH]ccc4c3)on2)cc1",
    "targetUnderTest": "COLO 320",
    "fold change (FC)": 1.81
  },
  {
    "molecule": "COc1cc(-c2cc(-c3ccc4[nH]ccc4c3)on2)cc(OC)c1OC",
    "targetUnderTest": "COLO 320",
    "fold change (FC)": 2.38
  },
  {
    "molecule": "COc1ccc(-c2cc(-c3ccc4[nH]ccc4c3)on2)cc1",
    "targetUnderTest": "COLO 320",
    "fold change (FC)": 2.18
  }
]

----------
Tested on: Calu-3
Assay: Cytotoxicity against human Calu3 cells assessed as cell viability after 72 hrs by WST-1 assay
Assay type: functional, cell-based
Conditions: Calu-3, 72 h
# IC50 values compiled below
outcomeMeasure: IC50

[
  {
    "molecule": "COc1cc(-c2cc(-c3ccc4[nH]ccc4c3)on2)cc(OC)c1OC",
    "observedMeasurement": "13.3 µM"
  },
  {
    "molecule": "COc1ccc2[nH]c(-c3cc(-c4cccc(F)c4)on3)cc2c1",
    "observedMeasurement": "> 100 µM"
  },
  {
    "molecule": "COc1ccc2[nH]c(-c3cc(-c4cccc(F)c4)no3)cc2c1",
    "observedMeasurement": "97.9 µM"
  },
  {
    "molecule": "Cn1c(-c2cc(-c3cccc(F)c3)on2)cc2ccccc21",
    "observedMeasurement": "> 100 µM"
  },
  {
    "molecule": "COc1cccc(-c2cc(-c3cc4ccccc4[nH]3)no2)c1",
    "observedMeasurement": "> 100 µM"
  },
  {
    "molecule": "COc1cccc(-c2cc(-c3cc4ccccc4n3C)no2)c1",
    "observedMeasurement": "17.3 µM"
  },
  {
    "molecule": "COc1ccc(-c2cc(-c3cc4ccccc4n3C)on2)cc1",
    "observedMeasurement": "> 100 µM"
  },
  {
    "molecule": "COc1cccc(-c2cc(-c3cc4ccccc4n3C)on2)c1",
    "observedMeasurement": "> 100 µM"
  },
  {
    "molecule": "COc1cccc(-c2cc(-c3cc4cc(OC)ccc4[nH]3)no2)c1",
    "observedMeasurement": "> 100 µM"
  },
  {
    "molecule": "COc1ccc(-c2cc(-c3ccc4[nH]ccc4c3)on2)cc1",
    "observedMeasurement": "22.5 µM"
  },
  {
    "molecule": "COC(=O)c1ccc(-c2cc(-c3ccc4[nH]ccc4c3)on2)cc1",
    "observedMeasurement": "> 100 µM"
  }
]
